Target: T1, γHV68 M11 residues 1-136 (murine γHV68), P89884
T1 chain: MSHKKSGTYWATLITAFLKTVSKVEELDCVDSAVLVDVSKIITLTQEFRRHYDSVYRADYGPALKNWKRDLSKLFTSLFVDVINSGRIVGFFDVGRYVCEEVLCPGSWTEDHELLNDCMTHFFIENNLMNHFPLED
Experiment: ITC, 25 °C
Simple rule here: Kd less than 6 µM is Met, otherwise Not met.

Does this binder meet the criterion Kd < 6 µM? GSGTMENASRRLKVTGDLFDIMSGQT (modifications not checked) [Beclin 1 BH3D-derived peptide L112A] Met

Given the entry GSGTMENLSRRLKVTEDLFDIMSGQT (modifications not checked) [Beclin 1 BH3D-derived peptide G120E] , would its reported Kd be below 6 µM? Not met

Others:
Does this binder meet the criterion Kd < 6 µM? GSGTMENLSRRLAVTGDLFDIMSGQT (modifications not checked) [Beclin 1 BH3D-derived peptide K117A] Met

Say whether its Kd is strictly beneath 6 µM. Entry: GSGTMENLSRRLKVTGDLADIMSGQT (modifications not checked) [Beclin 1 BH3D-derived peptide F123A] Met

Bench note: check whether GSGTMENLSRRAKVTGDLFDIMSGQT (modifications not checked) [Beclin 1 BH3D-derived peptide L116A] shows Kd below 6 µM Not met

Just wondering, is Kd of GSGTMENLSRRLKVTEALFDIMSGQT (modifications not checked) [Beclin 1 BH3D-derived G120E+D121A double mutant peptide] below 6 µM? Not met

Input GSGTMENLSRRLKVTGDLFDIMSGQT (modifications not checked) [Beclin 1 BH3D peptide, wild type] ; condition: Kd strictly below 6 µM. Does it hold? Met

Source listed as patent US20160272691A1.
